Listed compounds paired with reported Ki
Target or system: mouse TAAR1 (Mus musculus)
Construct: expressed in transfected cells; host or cells: HEK293 (ATCC # CRL-1573), stably transfected with pIRESneo2 expression plasmid
Protocol text: TAAR1 radioligand binding with [3H]-rac-2-(1,2,3,4-tetrahydro-1-naphthyl)-2-imidazoline, membranes of stably transfected HEK293 cells
Reported conditions: first value of the cell, read-out: Ki (μM) mouse/rat: mouse
Property label: Ki (µM)

> print(dat)
                                 smiles.str  property.label  measured.result
1  NC1=N[C@@H](CCc2ccc(NC(=O)Nc3ccc(C(F)(F)F)cc3)cc2)CO1              Ki           0.0001
2  NC1=N[C@@H](CCc2ccc(NC(=O)c3cc(Cl)ccn3)cc2)CO1              Ki           0.0007
3  NC1=N[C@@H](CCc2ccc(C(=O)Nc3ccc(Cl)cn3)cc2)CO1              Ki            0.004
4  NC1=N[C@@H](CCc2ccc(NC(=O)c3ccc(-n4cccn4)nc3)cc2)CO1              Ki           0.0012
5  NC1=N[C@@H](CCc2ccc(NC(=O)c3ncc(Cl)cn3)cc2)CO1              Ki           0.0067

----------
This listing pairs molecules with measured Ki.
Target or system: rat TAAR1 (Rattus norvegicus, UniProt Q923Y9)
Construct: expressed in transfected cells; host or cells: HEK293 (ATCC # CRL-1573), stably transfected with pIRESneo2 expression plasmid
Sequence (Q923Y9 whole entry): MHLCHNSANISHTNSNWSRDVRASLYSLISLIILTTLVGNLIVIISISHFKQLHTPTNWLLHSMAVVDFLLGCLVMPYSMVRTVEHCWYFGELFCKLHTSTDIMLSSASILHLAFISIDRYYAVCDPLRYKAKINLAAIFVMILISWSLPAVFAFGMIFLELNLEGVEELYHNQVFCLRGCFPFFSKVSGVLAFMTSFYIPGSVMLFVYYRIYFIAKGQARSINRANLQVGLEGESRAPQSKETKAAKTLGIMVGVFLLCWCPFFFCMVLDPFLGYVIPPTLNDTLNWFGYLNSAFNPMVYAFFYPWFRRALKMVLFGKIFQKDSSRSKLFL
Protocol text: TAAR1 radioligand binding with [3H]-rac-2-(1,2,3,4-tetrahydro-1-naphthyl)-2-imidazoline, membranes of stably transfected HEK293 cells
Reported conditions: second value of the cell, read-out: Ki (μM) mouse/rat: rat
Property label: Ki (µM)

> print(dat)
                                    molecule  unit.annotation  measured.result
 1  COC(C(=O)Nc1ccc(CC[C@H]2COC(N)=N2)cc1)c1ccc(Cl)cc1 (stereo partly drawn) [Example 78]               µM           0.0031
 2  COc1ccc(C(=O)Nc2ccc(CC[C@H]3COC(N)=N3)cc2)cn1 [Example 97]               µM           0.0015
 3  NC1=N[C@@H](CCc2ccc(NC(=O)c3ccnc(-c4ccncc4)c3)cc2)CO1 [Example 199]               µM           0.0037
 4  CO[C@H](C(=O)Nc1ccc(CC[C@H]2COC(N)=N2)cc1)c1ccccc1 [Example 74]               µM           0.0073
 5  CCc1ocnc1C(=O)Nc1ccc(CC[C@H]2COC(N)=N2)cc1 [Example 213]               µM           0.0022
 6  NC1=N[C@@H](CCc2ccc(NC(=O)C3(C(F)(F)F)CC3)cc2)CO1 [Example 52]               µM            0.006
 7  COc1cc(C(=O)Nc2ccc(CC[C@@H]3N=C(N)O[C@H]3C)cc2)nc(Cl)n1 [Example 219]               µM           0.0037
 8  NC1=N[C@@H](CCc2ccc(NC(=O)OCc3ccc(Cl)cc3)cc2)CO1 [Example 146]               µM           0.0003
 9  Cc1ccc(C(=O)Nc2ccc(CC[C@H]3COC(N)=N3)cc2)nc1 [Example 171]               µM           0.0011
10  NC1=N[C@@H](CCc2ccc(N3Cc4ccc(Cl)cc4C3=O)cc2)CO1 [Example 186]               µM            0.001
11  NC1=N[C@@H](CCCc2ccc(NC(=O)c3ccc(Cl)cc3)cc2)CO1 [Example 8]               µM           0.0001
12  Cc1ocnc1C(=O)Nc1ccc(CC[C@H]2COC(N)=N2)cc1 [Example 191]               µM           0.0021
13  Cn1cc(Cl)c(C(=O)Nc2ccc(CC[C@H]3COC(N)=N3)cc2)n1 [Example 194]               µM           0.0035
14  COc1cc(C(=O)Nc2ccc(CC[C@H]3COC(N)=N3)cc2)nc(C(C)C)n1 [Example 207]               µM           0.0011
15  NC1=N[C@@H](CCc2ccc(NC(=O)c3ccc(Cl)nc3)cc2)CO1 [Example 31]               µM           0.0035
16  NC1=N[C@@H](CCc2ccc(NC(=O)Cc3ccc(F)cc3)cc2)CO1 [Example 69]               µM           0.0009
17  CCOc1ccc(C(=O)Nc2ccc(CC[C@H]3COC(N)=N3)cc2)cc1 [Example 60]               µM           0.0006
18  NC1=N[C@@H](CCc2ccc(NC(=O)c3cnc(N4CCCCC4)nc3)cc2)CO1 [Example 123]               µM           0.0017

----------
Target or system: mouse TAAR1 (Mus musculus, UniProt Q923Y8)
Construct: expressed in transfected cells; host or cells: HEK293 (ATCC # CRL-1573), stably transfected with pIRESneo2 expression plasmid
Sequence (Q923Y8 whole entry): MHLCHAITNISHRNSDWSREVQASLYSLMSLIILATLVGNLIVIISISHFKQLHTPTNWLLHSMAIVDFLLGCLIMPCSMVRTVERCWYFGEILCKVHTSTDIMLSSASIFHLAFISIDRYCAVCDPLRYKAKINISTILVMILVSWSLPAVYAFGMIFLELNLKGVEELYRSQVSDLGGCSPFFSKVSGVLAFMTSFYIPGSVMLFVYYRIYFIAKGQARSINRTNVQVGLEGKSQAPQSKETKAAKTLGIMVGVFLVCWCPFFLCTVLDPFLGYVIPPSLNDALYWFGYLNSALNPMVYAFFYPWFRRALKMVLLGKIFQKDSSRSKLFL
Protocol text: TAAR1 radioligand binding with [3H]-rac-2-(1,2,3,4-tetrahydro-1-naphthyl)-2-imidazoline, membranes of stably transfected HEK293 cells
Reported conditions: first value of the cell, read-out: Ki (μM) mouse/rat: mouse
A collection of molecules and their measured Ki
Property label: Ki (µM)

> print(dat)
                                   molecule  measured.result
1  NC1=N[C@@H](CCc2ccc(NC(=O)c3ccc(Cl)nc3)cc2)CO1 [Example 31]           0.0025
2  NC1=N[C@@H](CCc2ccc(NC(=O)c3ccc(Cl)nn3)cc2)CO1 [Example 122]           0.0043
3  COc1cc(Cl)ccc1C(=O)Nc1ccc(CC[C@H]2COC(N)=N2)cc1 [Example 138]           0.0002
4  NC1=N[C@@H](CCc2ccc(NC(=O)c3cncc(Cl)n3)cc2)CO1 [Example 160]           0.0047
5  CCOc1cnc(C(=O)Nc2ccc(CC[C@H]3COC(N)=N3)cc2)cn1 [Example 161]            0.001
6  N#Cc1ccc(C(=O)Nc2ccc(CC[C@H]3COC(N)=N3)cc2)nc1 [Example 119]           0.0015
7  CCc1nc(C(=O)Nc2ccc(CC[C@H]3COC(N)=N3)cc2)co1 [Example 217]           0.0051
8  CCOc1ccc(C(=O)Nc2ccc(CC[C@H]3COC(N)=N3)cc2)cc1 [Example 60]            0.001
9  NC1=N[C@@H](CCc2ccc(NC(=O)C3(C(F)(F)F)CC3)cc2)CO1 [Example 52]           0.0073

----------
Target or system: mouse TAAR1 (Mus musculus, UniProt Q923Y8)
Construct: expressed in transfected cells; host or cells: HEK293 (ATCC # CRL-1573), stably transfected with pIRESneo2 expression plasmid
Protocol text: TAAR1 radioligand binding with [3H]-rac-2-(1,2,3,4-tetrahydro-1-naphthyl)-2-imidazoline, membranes of stably transfected HEK293 cells
Reported conditions: first value of the cell, read-out: Ki (μM) mouse/rat: mouse
Quick reference: log10(Ki) of the listed items.
Property label: log10(Ki) (log10 of the value in µM)

> print(dat)
                                 smiles.str                          target.or.system  property.label  measured.result
1  NC1=N[C@@H](CCc2ccc(NC(=O)CCc3ccccc3Cl)cc2)CO1  mouse TAAR1 (Mus musculus, UniProt Q923Y8)       log10(Ki)            -2.85
2  Cc1cc(C(=O)Nc2ccc(CC[C@H]3COC(N)=N3)cc2)ccn1  mouse TAAR1 (Mus musculus, UniProt Q923Y8)       log10(Ki)            -2.08
3  NC1=N[C@@H](CCc2ccc(NC(=O)c3ccc(C(F)(F)F)nc3)cc2)CO1  mouse TAAR1 (Mus musculus, UniProt Q923Y8)       log10(Ki)            -2.60
4  NC1=N[C@@H](CCc2ccc(NC(=O)c3ccc(C(F)(F)F)cn3)cc2)CO1  mouse TAAR1 (Mus musculus, UniProt Q923Y8)       log10(Ki)            -3.10
5  NC1=N[C@@H](CCc2ccc(NC(=O)c3ccc(C(F)(F)F)cc3)cc2)CO1  mouse TAAR1 (Mus musculus, UniProt Q923Y8)       log10(Ki)            -3.70
6  NC1=N[C@@H](C[C@@H](Oc2ccc(NC(=O)c3ccc(Cl)cc3)cc2)C(F)(F)F)CO1  mouse TAAR1 (Mus musculus, UniProt Q923Y8)       log10(Ki)            -3.40
7  NC1=N[C@@H](CCc2ccc(NC(=O)C3CCCC3)cc2)CO1  mouse TAAR1 (Mus musculus, UniProt Q923Y8)       log10(Ki)            -2.54
8  Cc1cc(Cl)cc(C(=O)Nc2ccc(CC[C@H]3COC(N)=N3)cc2)n1  mouse TAAR1 (Mus musculus, UniProt Q923Y8)       log10(Ki)            -3.22
